Molecular target: carbamylated HSA (cHSA-1) (Homo sapiens)
Assay: ITC titration of peptide into cHSA-1
Type: binding
Settings: pH 7.4
Where no end group is shown, it is not given here.
assay.endpoint: Kd (µM)
Give a bare numeral; the unit µM is implied.

Sure, the documented Kd for GSAARTISPSLL [cH2-p1] is 120

---

Biological target: cHSA (Homo sapiens, UniProt P02768)
Sequence (P02768 25-609): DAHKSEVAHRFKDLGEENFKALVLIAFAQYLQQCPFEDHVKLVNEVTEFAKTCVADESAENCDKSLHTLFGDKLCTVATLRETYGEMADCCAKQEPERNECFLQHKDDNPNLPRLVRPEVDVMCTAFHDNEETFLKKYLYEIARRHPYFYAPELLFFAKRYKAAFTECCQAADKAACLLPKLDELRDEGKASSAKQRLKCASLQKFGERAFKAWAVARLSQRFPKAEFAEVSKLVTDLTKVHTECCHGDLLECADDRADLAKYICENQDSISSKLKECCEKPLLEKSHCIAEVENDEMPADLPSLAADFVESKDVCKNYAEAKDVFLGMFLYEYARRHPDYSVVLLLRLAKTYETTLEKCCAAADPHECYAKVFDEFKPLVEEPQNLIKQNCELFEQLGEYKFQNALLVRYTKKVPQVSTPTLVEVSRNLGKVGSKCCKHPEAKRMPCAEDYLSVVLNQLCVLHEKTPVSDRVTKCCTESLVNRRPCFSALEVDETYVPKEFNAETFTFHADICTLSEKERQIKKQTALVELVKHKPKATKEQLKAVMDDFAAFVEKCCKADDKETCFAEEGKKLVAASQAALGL
Assay: ITC titration of peptide into cHSA of different levels of carbamylation
Format: binding
pKd: −log10 of the molar value. Where no end group is shown, it is not given here.
assay.endpoint: pKd

Sure, the documented pKd for GSAARTISPSLL [cH2-p1] is ~4.00
